# test-summary: Pharmacokinetic assay in beagle dogs
# assay-setup: both, dog, in vivo, iv, 0.3 mg/kg, t1/2, beagle dogs, mean
assay-readout: half-life (h)

{"columns": ["molecule", "assay-readout", "quantitative-readout"],
 "data": [
  ["CNCCC(Oc1cccc2c1OCO2)c1ccccc1.O=C(O)C(=O)O (stereo not shown)", "half-life", 1.93]
]}

====

# test-summary: Pharmacokinetic assay in beagle dogs
# assay-setup: both, dog, in vivo, iv, 0.3 mg/kg, AUC(0-∞), beagle dogs, mean
assay-readout: AUC(0-inf) (ng·h/mL)

{"columns": ["compound", "quantitative-readout"],
 "data": [
  ["CNCCC(Oc1cccc2c1OCO2)c1ccccc1.O=C(O)C(=O)O (stereo not shown)", 110]
]}

====

# test-summary: in vivo
# assay-setup: both, beagle, dog, iv, 0.3 mg/kg, t1/2

{"columns": ["structure", "half-life / h"],
 "data": [
  ["CNCC[C@@H](Oc1cccc2c1OCO2)c1ccccc1.Cl", 2.15]
]}

====

# test-summary: in vivo
# assay-setup: both, beagle, dog, iv, 0.3 mg/kg, AUC(0-t)

{"columns": ["molecule", "unit-spec", "AUC(0-t)"],
 "data": [
  ["CNCC[C@@H](Oc1cccc2c1OCO2)c1ccccc1.Cl [Compound of formula I]", "ng·h/mL", 117]
]}

====

List of minimum effective dose (MED) values.
# Test system: ICR mice
# test-summary: Mouse forced swimming test
# Type: in vivo
# assay-setup: mouse forced swimming, intragastric
Structures can show the parent of a compound that is named as a salt.
assay-readout: minimum effective dose (MED) (mg/kg)

{"columns": ["molecule", "quantitative-readout"],
 "data": [
  ["CNCC[C@H](Oc1cccc2ccccc12)c1cccs1 [Duloxetine hydrochloride, reference compound]", 5],
  ["CNCC[C@@H](Oc1cccc2c1OCO2)c1ccccc1.Cl [Compound of formula I]", 0.4],
  ["CNCC[C@H](Oc1cccc2c1OCO2)c1ccccc1.Cl", 1.6],
  ["CNCCC(Oc1cccc2c1OCO2)c1ccccc1.Cl (stereo not shown)", 0.4]
]}

====

# test-summary: Pharmacokinetic assay in beagle dogs
# assay-setup: both, dog, in vivo, po, 1 mg/kg, AUC(0-t), beagle dogs, oral (capsule), mean

{"columns": ["molecule", "AUC(0-t), µg·h/mL"],
 "data": [
  ["CNCCC(Oc1cccc2c1OCO2)c1ccccc1.O=C(O)C(=O)O (stereo not shown)", 0.0787]
]}

====

# test-summary: in vivo
# assay-setup: both, beagle, dog, po, 1 mg/kg, Tmax

{"columns": ["structure", "Tmax / h"],
 "data": [
  ["CNCC[C@@H](Oc1cccc2c1OCO2)c1ccccc1.Cl", 1.23]
]}

====

# test-summary: in vivo
# assay-setup: both, beagle, dog, po, 1 mg/kg, Cmax
assay-readout: Cmax (ng/mL)

{"columns": ["structure", "quantitative-readout"],
 "data": [
  ["CNCC[C@@H](Oc1cccc2c1OCO2)c1ccccc1.Cl", 28.9]
]}

====

# test-summary: in vivo
# assay-setup: both, beagle, dog, iv, 0.3 mg/kg, Tmax

{"columns": ["compound", "Tmax, min"],
 "data": [
  ["CNCC[C@@H](Oc1cccc2c1OCO2)c1ccccc1.Cl [Compound of formula I]", 4.8]
]}

====

# test-summary: in vivo
# assay-setup: both, beagle, dog, po, Bioavailability
assay-readout: bioavailability

{"columns": ["structure", "assay-readout", "result"],
 "data": [
  ["CNCC[C@@H](Oc1cccc2c1OCO2)c1ccccc1.Cl", "bioavailability", "25.7%"]
]}
